// values below are reported DGI-2 (OD)
Target: DGI-2 (Homo sapiens, UniProt Q15004)
Construct: encompassed the entire DGI-2 open reading frame (ORF); His-tag of vector pIVEX2.3-MCS (inferred from the vector and from the reverse primer lacking a stop codon); made in house; host or cells: cell-free in vitro translation (Rapid Translation System RTS, Roche; E. coli lysate)
Sequence (Q15004 1-111): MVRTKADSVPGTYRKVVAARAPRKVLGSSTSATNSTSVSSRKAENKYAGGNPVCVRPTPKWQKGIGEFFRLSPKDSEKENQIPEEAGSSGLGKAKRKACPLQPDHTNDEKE
Experiment: ELISA analysis of phage on DGI-2 polypeptide (specific binding)
Conditions: binding to DGI-2 polypeptide (specific binding); phage ELISA units read at 405 nm

{"substance": "RSRSSSGASGSMLRVQNHMVLGSWMVRQPMGSMTPFHGHG (DGI-2-40F-3-B5; listed as Escherichia coli)", "DGI-2 (OD)": 1.0}
{"substance": "CGGWGAMWEAWVQGLNGAGC (DGI-2-20R-3-D4; listed as Escherichia coli)", "DGI-2 (OD)": 8.7}
{"substance": "SIVSSRSGWQRGWIAWEAPV (SIVSSRSGWQRGWIAWFAPV; DGI-2-20F-PP-E5; listed as Escherichia coli)", "DGI-2 (OD)": 2.7}
{"substance": "ISGQVWSSWRFPGWGGKLF (ISGQVWSSWRFPGWGGKF; DGI-2-20R-3-D10; listed as Escherichia coli)", "DGI-2 (OD)": 4.7}
{"substance": "ACSVGTALVFPQRWWYLGRS (DGI-2-20R-3-D6; listed as Escherichia coli) [DGL-2-20R-3-D6]", "DGI-2 (OD)": 2.2}
{"substance": "LWRRWSEGQLLGDGELRGDG (DGI-2-20R-3-B52; listed as Escherichia coli)", "DGI-2 (OD)": 8.7}
{"substance": "WWREWVDGSLRGGGGTVLKD (DGI-2-20R-3-A122; listed as Escherichia coli)", "DGI-2 (OD)": 9.6}
{"substance": "GSVLERGCLEFSGFCFSLGH (DGI-2-20F-3-C1; listed as Escherichia coli)", "DGI-2 (OD)": 3.4}
{"substance": "LLLPVRWRDAQPRSLLMEWI (DGI-2-20F-PP-F8; listed as Escherichia coli)", "DGI-2 (OD)": 2.0}
{"substance": "RSIRLQLIDEACQFFDGLCT (DGI-2-20R-3-A8; listed as Escherichia coli)", "DGI-2 (OD)": 6.9}
{"substance": "LHFGSVMGWRPPGSLWSRPFGQVHPRSWSGS (DGI-2-40F-3-D11; listed as Escherichia coli)", "DGI-2 (OD)": 3.8}
{"substance": "RDTMCGSVSWGIPGCEYSGM (DGI-2-20R-4-G122; listed as Escherichia coli)", "DGI-2 (OD)": 7.6}
{"substance": "QLDCLVWGLPGLRCDRPLEQ (DGI-2-20R-3-B10; listed as Escherichia coli)", "DGI-2 (OD)": 7.8}
{"substance": "GHGAGDWAAELFVCPVAFLTGFAWR (DGI-2-20R-4-H2; listed as Escherichia coli)", "DGI-2 (OD)": 9.9}
{"substance": "LGRIVRPCVVRLCGGV##GV (LGRIVRPCVVRLCGGVGV; DGI-2-20F-PP-G10; listed as Escherichia coli)", "DGI-2 (OD)": 2.5}
{"substance": "MGADTCMGGKMPFDQMFGAV (DGI-2-20F-PP-E10; listed as Escherichia coli)", "DGI-2 (OD)": 2.0}
{"substance": "LHRLGQSMGGTLDHLQGWGV (DGI-2-20R-4-E5; listed as Escherichia coli)", "DGI-2 (OD)": 1.2}
{"substance": "RGVNSDMPRLYICRADGQGQ (DGI-2-20F-PP-H6; listed as Escherichia coli)", "DGI-2 (OD)": 1.6}
{"substance": "GLEPVPFQTDKRIAMGWTREWLVNGYGAAHRRDARMQSGH (DGI-2-40F-3-D6; listed as Escherichia coli)", "DGI-2 (OD)": 2.5}
{"substance": "GRWDGWEVCGIWGADDCASG (DGI-2-20R-4-H1; listed as Escherichia coli)", "DGI-2 (OD)": 9.3}
{"substance": "DDIVCLFQFCTMFCWLDMGW (DDIVCLFQFCIMFCWLDMGW; DGI-2-20F-PP-H3; listed as Escherichia coli)", "DGI-2 (OD)": 2.3}
{"substance": "LFSATGCALMSGFCLGSDGS (DGI-2-20R-3-C1; listed as Escherichia coli)", "DGI-2 (OD)": 8.2}
{"substance": "LGNASSLWFLRSVQESGVR (LGNASSLIPFLRSVQESGVR; DGI-2-20F-3-C5; listed as Escherichia coli)", "DGI-2 (OD)": 1.0}
{"substance": "LSLEGGWMWDTKGGDGGSAQ (DGI-2-20R-4-F93; listed as Escherichia coli)", "DGI-2 (OD)": 9.0}
{"substance": "RCFQDGRMLALSPTYLIRRSVSPLVVGPLPTP (DGI-2-40F-3-A24; listed as Escherichia coli)", "DGI-2 (OD)": 1.3}
{"substance": "RISVGQCGTSRCGGGRRGGG (DGI-2-20F-PP-D1; listed as Escherichia coli)", "DGI-2 (OD)": 2.0}
{"substance": "RVSYEMLGRRRRSMHGSSMR (DGI-2-20F-PP-A4; listed as Escherichia coli)", "DGI-2 (OD)": 2.7}
{"substance": "SWRLWVSGELQGDRRKGLRG (DGI-2-20R-3-B7; listed as Escherichia coli)", "DGI-2 (OD)": 3.1}
{"substance": "SLLCVVCRPVSGGRALGGVP (DGI-2-20F-PP-B42; listed as Escherichia coli)", "DGI-2 (OD)": 2.4}
{"substance": "GITGLFCLCLRSSQSI (DGI-2-20F-PP-D6; listed as Escherichia coli) [DGI-2-20F-P0P-D6]", "DGI-2 (OD)": 3.3}
{"substance": "WVVALRRIRLGLRRGVECLL (DGI-2-20F-PP-D5; listed as Escherichia coli)", "DGI-2 (OD)": 2.7}
